test system: dopamine D-1 receptor (Rattus norvegicus)
Construct: Striatal tissue was excised, pooled, and homogenized; tissue Charles River Breeding Laboratories, Mass; (animals); host or cells: striatum of male Sprague-Dawley rats, washed membrane pellet
experiment notes: Competitive inhibition assay vs. 3H-SCH 23390 (dopamine D-1 receptor binding)
Set-up: species or system Male Sprague-Dawley rat (striatal tissue)
pKi: −log10 of the molar value.
parameter: pKi

* CCOC1CN(C)CCc2cc(Cl)c(O)cc21 (stereo not drawn) | 7.47
* COC1CN(C)CCc2cc(Cl)c(O)cc21 (stereo not drawn) | 7.27
* CN1CCc2cc(Cl)c(O)cc2C2(CCCC2)C1 | 7.72

###

test system: dopamine D-1 receptor (Rattus norvegicus, UniProt P18901)
Construct: Striatal tissue was excised, pooled, and homogenized; tissue Charles River Breeding Laboratories, Mass; (animals); host or cells: striatum of male Sprague-Dawley rats, washed membrane pellet
Sequence (P18901 whole entry): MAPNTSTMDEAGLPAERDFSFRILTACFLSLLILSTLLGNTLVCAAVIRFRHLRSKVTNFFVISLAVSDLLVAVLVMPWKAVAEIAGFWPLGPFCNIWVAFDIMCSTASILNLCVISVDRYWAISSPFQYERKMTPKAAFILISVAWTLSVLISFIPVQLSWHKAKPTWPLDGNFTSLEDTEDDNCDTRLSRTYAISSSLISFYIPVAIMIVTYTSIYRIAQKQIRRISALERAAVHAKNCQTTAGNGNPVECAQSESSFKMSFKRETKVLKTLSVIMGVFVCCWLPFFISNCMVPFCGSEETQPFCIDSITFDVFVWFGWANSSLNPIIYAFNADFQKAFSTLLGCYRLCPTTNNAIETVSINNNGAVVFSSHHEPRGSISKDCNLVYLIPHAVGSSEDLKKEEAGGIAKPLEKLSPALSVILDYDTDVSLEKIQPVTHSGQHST
experiment notes: Competitive inhibition assay vs. 3H-SCH 23390 (dopamine D-1 receptor binding)
Set-up: species or system Male Sprague-Dawley rat (striatal tissue)
run parameters: rat striatal homogenate, 0.3 nM 3H-SCH 23390, pH 7.4, 37° C., 15 min; read-out: Ki vs. 3H-SCH 23390
pKi: −log10 of the molar value.
The label depends only on pKi: yes (1) if it is at least 7, no (0) if it is smaller.

- CN1CCc2cc(Cl)c(O)cc2C(Sc2ccccc2)C1 (centres unmarked): yes (1)
- CCSC1CNCCc2cc(Cl)c(O)cc21 (centres unmarked): no (0)
- CN1CCc2cc(Cl)c(O)cc2C(C2CCCC2)C1 (centres unmarked): yes (1)
- CN1CCc2cc(Cl)c(O)cc2C(OCCc2ccccc2)C1 (centres unmarked): yes (1)

###

test system: dopamine D-1 receptor (Rattus norvegicus, UniProt P18901)
Construct: Striatal tissue was excised, pooled, and homogenized; tissue Charles River Breeding Laboratories, Mass; (animals); host or cells: striatum of male Sprague-Dawley rats, washed membrane pellet
experiment notes: Competitive inhibition assay vs. 3H-SCH 23390 (dopamine D-1 receptor binding)
Parameters: species or system Male Sprague-Dawley rat (striatal tissue)
run parameters: rat striatal homogenate, 0.3 nM 3H-SCH 23390, pH 7.4, 37° C., 15 min; read-out: Ki vs. 3H-SCH 23390
Ki less than 40 nM is y; Ki greater than or equal to 40 nM is n.

• C=CCC1CN(C)CCc2cc(Cl)c(O)cc21 (stereo not shown) = y
• CC(=O)Oc1cc2c(cc1Cl)CCN(C)CC2CC=C(C)C (stereo not shown) = y
• CN1CCc2cc(Cl)c(O)cc2C(C2C=CCCC2)C1 (stereo not shown) = y
• CN1CCc2cc(Cl)c(O)cc2C(C2CCCCC2)C1 (stereo not shown) = y
• CN1CCc2cc(Cl)c(O)cc2C(=Cc2ccccc2)C1 = n
• CN1CCc2cc(Cl)c(O)cc2C(n2cccc2)C1 (stereo not shown) = y
• CCOC(=O)Oc1cc2c(cc1Cl)CCN(C)CC2C1CCCCC1 (stereo not shown) = n
• CCSC1CN(C)CCc2cc(Cl)c(O)cc21 (stereo not shown) = y
• CN(C)CCCC1CN(C)CCc2cc(Cl)c(O)cc21 (stereo not shown) = n
• C=CCC1CN(C)CCc2cc(Cl)c(OC(=O)COC)cc21 (stereo not shown) = y
• C=CCC1CN(C)CCc2cc(Cl)c(OCOC(=O)C(C)(C)C)cc21 (stereo not shown) = n
• CN1CCc2cc(Cl)c(O)cc2C(OCC(F)(F)F)C1 (stereo not shown) = n
• C=CCC1CN(C)CCc2cc(Cl)c(OC(=O)C(C)C)cc21 (stereo not shown) = n
• CN1CCc2cc(Cl)c(O)cc2C(OC2CCCCC2)C1 (stereo not shown) = y
• CN1CCc2cc(Cl)c(O)cc2C(Oc2ccccc2)C1 (stereo not shown) = n
• CN1CCc2cc(Cl)c(O)cc2C(OCc2ccccc2)C1 (stereo not shown) = y

Where these numbers come from: patent US5015639A
